- assay.protocol: Plasma concentrations in volunteers after one tablet of racemate or (S)-enantiomer
- Assay type: in vivo, Menschen
- test.conditions: human, po, tablet with 2 mg AG-EE 388 ZW, 12 volunteers, read-out: Maximal-Konzentrationen
quantity.name: Cmax (ng/mL)
Your answer should be a plain number; it is taken to be in ng/mL.

stdin: Need Cmax of CCOc1cc(CC(=O)NC(CC(C)C)c2ccccc2N2CCCCC2)ccc1C(=O)O (racemic) [AG-EE 388 ZW, reference compound] , thanks.
stdout: 84
